Origin of the recorded values: patent US12637471B2

Target: 17β-Hydroxysteroid Dehydrogenase Type 2 Enzyme (17β-HSD2) (Homo sapiens)
Construct: made in house; host or cells: Sf-9 insect cells (baculovirus)
Sequence (P37059 whole entry): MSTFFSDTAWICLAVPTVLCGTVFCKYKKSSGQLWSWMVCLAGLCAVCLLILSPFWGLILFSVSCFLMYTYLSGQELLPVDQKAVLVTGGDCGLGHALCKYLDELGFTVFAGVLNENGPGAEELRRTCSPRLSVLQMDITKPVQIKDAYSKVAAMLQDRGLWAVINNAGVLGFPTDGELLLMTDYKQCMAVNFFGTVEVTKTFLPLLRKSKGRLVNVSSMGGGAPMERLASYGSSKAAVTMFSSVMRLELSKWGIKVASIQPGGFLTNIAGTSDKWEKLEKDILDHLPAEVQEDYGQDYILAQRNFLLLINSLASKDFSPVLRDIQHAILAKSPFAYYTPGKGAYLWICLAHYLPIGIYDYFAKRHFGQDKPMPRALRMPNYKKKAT
Test: Inhibition of the 17β-hydroxysteroid dehydrogenase type 2 enzyme, 3H-testosterone conversion
Type: biochemical
Conditions: inhibitor at 10 μM
parameter measured: inhibition at 10 µM (%)

// worked examples, inhibition at 10 µM included
CN(C(=O)N1CCC(=C(C#N)c2ccc(F)cc2)CC1)C1CCOCC1 [Compound 14] = 3
N#CC(=C1CCN(C(=O)N2Cc3ccccc3C2)CC1)c1ccc(F)cc1 [Compound 11] = 24
CCN(CC)C(=O)N1CCC(=C(C#N)c2ccc(Cl)cc2)CC1 [Compound 105] = 15
COCC1CCN(C(=O)N2CCC(=C(C#N)c3cccc(Cl)c3)CC2)CC1 [Compound 153] = 26
Cn1ncc2cccc(C(C#N)=C3CCN(C(=O)N4CCc5nocc5C4)CC3)c21 [Compound 136] = 26

(a) CC(O)C1CCN(C(=O)N2CCC(=C(C#N)c3cccc(Cl)c3)CC2)CC1 (stereo not drawn) [Compound 154]
(b) CO[C@@H]1CCN(C(=O)N2CCC(=C(C#N)c3ccc(F)cc3)CC2)C1 [Compound 7]
(c) CN(C(=O)N1CCC(=C(C#N)c2ccc(Cl)cc2)CC1)C1CCOCC1 [Compound 69]
query: Let's sort these by inhibition at 10 µM, smallest first. Go ahead? Reply format: the labels, ordered as requested.
result: b, c, a
(b: 1%, c: 10%, a: 26%)

* * *

Molecular target: Recombinant human aldo-keto reductase family 1 member C2 (AKR1C2) protein (Homo sapiens, UniProt P52895)
Construct: made in house; host or cells: Sf-9 insect cells (baculovirus)
Sequence (P52895 whole entry): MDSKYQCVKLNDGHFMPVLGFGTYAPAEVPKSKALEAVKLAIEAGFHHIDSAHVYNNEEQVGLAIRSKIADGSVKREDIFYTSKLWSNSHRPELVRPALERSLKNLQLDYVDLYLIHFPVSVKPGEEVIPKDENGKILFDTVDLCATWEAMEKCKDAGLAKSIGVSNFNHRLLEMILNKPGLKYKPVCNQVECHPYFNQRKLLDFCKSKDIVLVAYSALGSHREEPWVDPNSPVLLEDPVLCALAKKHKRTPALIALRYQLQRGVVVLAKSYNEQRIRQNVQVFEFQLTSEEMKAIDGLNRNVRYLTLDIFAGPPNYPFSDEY
Assay: Inhibition of the aldo-keto reductase family 1 member C2, 3H-dihydrotestosterone conversion
Type: biochemical
Conditions: inhibitor at 10 μM
parameter measured: inhibition at 10 µM (%)

N#CC(=C1CCN(C(=O)N2CCc3[nH]ncc3C2)CC1)c1ccc(F)c(F)c1 [Compound 43] = 29
N#CC(=C1CCN(C(=O)N2C[C@@H]3CC[C@@H]2C3)CC1)c1ccc(F)cc1 [Compound 29] = 5
CN(C(=O)N1CCC(=C(C#N)c2ccc(Cl)s2)CC1)C1COC1 [Compound 103] = 19
N#CC(=C1CCN(C(=O)N2CCc3nocc3C2)CC1)c1ccc(F)cc1 [Compound 12] = 19
N#CC(=C1CCN(C(=O)N2CCC(CCO)CC2)CC1)c1ccc(F)cc1 [Compound 97] = 9
N#CC(=C1CCN(C(=O)N2CCC(O)CC2)CC1)c1n[nH]c2ccccc12 [Compound 70] = 5

(I) N#CC(=C1CCN(C(=O)N2CCn3nncc3C2)CC1)c1ccc(OC(F)(F)F)cc1 [Compound 162]
(II) N#CC(=C1CCN(C(=O)N2CCC(O)CC2)CC1)c1cccc2[nH]ncc12 [Compound 48]
query: Dear colleague, could you let me know whether I or II has the lower recorded inhibition at 10 µM? Thanks. Please identify the chosen entry by its label.
result: II

* * *

Biological target: Recombinant human AKR1C3 (17β-HSD5) protein (Homo sapiens, UniProt P42330)
Construct: made in house; host or cells: E. coli
Experiment: Inhibition of AKR1C3 (17β-hydroxysteroid dehydrogenase type 5) enzyme, fluorescence assay
Assay type: biochemical
Details: inhibitor at 500 nM
parameter measured: inhibition at 0.5 µM (%)

N#CC(=C1CCN(C(=O)N2CCC(O)CC2)CC1)c1ccc(Cl)cc1 [Compound 18] = 99
COC1CCN(C(=O)N2CCC(=C(C#N)c3ccc(Cl)cc3)CC2)CC1 [Compound 79] = 99
CC(=O)N1CCN(C(=O)N2CCC(=C(C#N)c3ccc(Cl)cc3)CC2)CC1 [Compound 130] = 97
CCOC1CCN(C(=O)N2CCC(=C(C#N)c3ccc(F)cc3F)CC2)CC1 [Compound 137] = 97
N#CC(=C1CCN(C(=O)N2CCn3nncc3C2)CC1)c1ccc(C(F)(F)F)cc1 [Compound 150] = 100
N#CC(=C1CCN(C(=O)N2CCC(O)CC2)CC1)c1cncc(Cl)c1 [Compound 86] = 80
N#CC(=C1CCN(C(=O)N2CC3CCCC3C2)CC1)c1ccc(F)cc1 (stereo not drawn) [Compound 101] = 90
N#CC(=C1CCN(C(=O)N2CCC(CO)CC2)CC1)c1ccc(C(F)(F)F)cc1 [Compound 76] = 99
N#CC(=C1CCN(C(=O)N2CCn3cncc3C2)CC1)c1cccc2cn[nH]c12 [Compound 72] = 98

* * *

Target: Recombinant human AKR1C3 (17β-HSD5) protein (Homo sapiens, UniProt P42330)
Construct: made in house; host or cells: E. coli
Sequence (P42330 1-323): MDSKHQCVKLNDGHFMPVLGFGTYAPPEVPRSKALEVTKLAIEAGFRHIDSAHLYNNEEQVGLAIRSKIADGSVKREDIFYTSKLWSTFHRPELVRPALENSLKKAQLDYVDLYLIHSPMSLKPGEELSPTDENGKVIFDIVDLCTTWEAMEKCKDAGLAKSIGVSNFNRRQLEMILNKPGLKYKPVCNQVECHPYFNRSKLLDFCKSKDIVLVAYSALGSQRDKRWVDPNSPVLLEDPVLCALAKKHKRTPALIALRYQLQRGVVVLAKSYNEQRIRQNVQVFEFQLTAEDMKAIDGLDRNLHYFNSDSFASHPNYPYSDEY
Experiment: Inhibition of AKR1C3 (17β-hydroxysteroid dehydrogenase type 5) enzyme, fluorescence assay
Assay type: biochemical
Details: inhibitor at 500 nM
parameter measured: inhibition at 0.5 µM (%)

N#CC(=C1CCN(C(=O)N2CCc3[nH]ncc3C2)CC1)c1cccc2cn[nH]c12 = 99
N#CC(=C1CCN(C(=O)N2CCC(CCO)CC2)CC1)c1ccc(C(F)(F)F)cc1 = 94
COC[C@@H]1CCCN1C(=O)N1CCC(=C(C#N)c2ccc(Cl)cc2)CC1 = 100
COCC1CCN(C(=O)N2CCC(=C(C#N)c3ccc(F)cc3F)CC2)CC1 = 92
Cn1ncc2cccc(C(C#N)=C3CCN(C(=O)N4CCn5cncc5C4)CC3)c21 = 98
CCOC1CCN(C(=O)N2CCC(=C(C#N)c3ccc(Cl)s3)CC2)CC1 = 97
CCN(CC)C(=O)N1CCC(=C(C#N)c2ccc(F)cc2)CC1 = 99
N#CC(=C1CCN(C(=O)N2CCC(CO)CC2)CC1)c1ccc(F)c(F)c1 = 97

* * *

Target: Recombinant human aldo-keto reductase family 1 member C2 (AKR1C2) protein (Homo sapiens, UniProt P52895)
Construct: made in house; host or cells: Sf-9 insect cells (baculovirus)
Assay: Inhibition of the aldo-keto reductase family 1 member C2, 3H-dihydrotestosterone conversion
Assay type: biochemical
Conditions: inhibitor at 10 μM
parameter measured: inhibition at 10 µM (%)

CC(=O)n1ncc2c(C(C#N)=C3CCN(C(=O)N4CCc5nocc5C4)CC3)cccc21 [Compound 93] = 11
N#CC(=C1CCN(C(=O)N2C3CCC2COC3)CC1)c1cccc(Cl)c1 [Compound 156] = 8
Cn1ncc2cccc(C(C#N)=C3CCN(C(=O)N4CCc5nocc5C4)CC3)c21 [Compound 136] = 6
CC(O)C1CCN(C(=O)N2CCC(=C(C#N)c3ccc(C(F)(F)F)cc3)CC2)CC1 (centres unmarked) [Compound 151] = 11
CCCOC1CCN(C(=O)N2CCC(=C(C#N)c3ccc(Cl)cc3)CC2)CC1 [Compound 134] = 13

(A) N#CC(=C1CCN(C(=O)N2CCC(C(F)(F)F)CC2)CC1)c1ccc(F)cc1 [Compound 98]
(B) N#CC(=C1CCN(C(=O)N2CCn3ncnc3C2)CC1)c1ccc(Cl)cc1 [Compound 164]
query: Recorded inhibition at 10 µM values differ for A and B ; which one is higher? Please identify the chosen entry by its label.
result: B
(B: 12%, A: 8%)

* * *

Molecular target: Recombinant human AKR1C3 (17β-HSD5) protein (Homo sapiens, UniProt P42330)
Construct: made in house; host or cells: E. coli
Sequence (P42330 1-323): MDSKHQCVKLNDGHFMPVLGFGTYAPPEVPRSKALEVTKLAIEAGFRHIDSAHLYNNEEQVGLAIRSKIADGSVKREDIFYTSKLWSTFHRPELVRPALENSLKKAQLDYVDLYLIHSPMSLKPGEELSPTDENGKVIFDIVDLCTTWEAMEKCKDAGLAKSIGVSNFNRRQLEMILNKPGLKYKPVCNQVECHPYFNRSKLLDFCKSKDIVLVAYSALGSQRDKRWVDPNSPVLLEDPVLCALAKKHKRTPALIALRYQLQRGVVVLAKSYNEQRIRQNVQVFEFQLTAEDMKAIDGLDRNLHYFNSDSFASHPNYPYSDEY
Assay: Inhibition of AKR1C3 (17β-hydroxysteroid dehydrogenase type 5) enzyme, fluorescence assay
Format: biochemical
Details: inhibitor at 500 nM
parameter measured: inhibition at 0.5 µM (%)

N#CC(=C1CCN(C(=O)N2C3CCC2COC3)CC1)c1ccc(F)cc1 = 97
N#CC(=C1CCN(C(=O)N2CCC(CO)CC2)CC1)c1ccc(Cl)cc1 = 98
N#CC(=C1CCN(C(=O)N2CCn3ncnc3C2)CC1)c1ccc(Cl)s1 = 98
N#CC(=C1CCN(C(=O)N2CCc3nocc3C2)CC1)c1ccc(F)cc1 = 99
N#CC(=C1CCN(C(=O)N2CC(C#N)C2)CC1)c1ccc(F)cc1F = 95
